Hello, the source for this data is patent US20020147129A1, in case you need it.

Study System: AT4 receptor of sheep central nervous system (sheep)
Run Description: competition for 125I-LVV-haemorphin-7 binding, sheep cerebellar cortical membranes
pIC50: −log10 of the molar value. Where no end group is shown, it is not given here.

Binder: VYIHPF (also: same id also used for [125I]Ang IV tracer, radioiodinated with chloramine T) [angiotensin IV]
pIC50: 9.00
--
Binder: LVVYPWTQRF [LVV-haemorphin-7]
pIC50: 8.25
